Biological target: Tt-S15 (Thermus thermophilus, UniProt Q5SJ76)
Sequence (Q5SJ76 2-89): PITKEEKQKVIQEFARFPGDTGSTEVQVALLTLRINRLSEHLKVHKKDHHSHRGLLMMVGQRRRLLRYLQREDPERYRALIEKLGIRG
Test: filter binding; 50 mM Tris/acetate pH 7.5, 20 mM Mg-acetate, 270 mM KCl, 5 mM DTT, 0.02% BSA, RNA <1 nM, 30 min at 25 C (thermophile RNAs also at 55 C)
Details: protein: recombinant; label: 5'-32P; three-way junction

| binder | unit-of-measurement | Kd |
| --- | --- | --- |
| Tt-mRNA WT (structured_RNA) RNA: GGCUUGGCGGGAGACCGCCUCGAGGAGGAAGGGGCUCAAAGCGCCUUCCCGCCUGACGGAGGGAAAACAUGCCCAUCACGAA | nM | 2.11 |

These measurements were taken from paper PMC4684408.
